Each recorded value in this set is attributed to BindingDB's records for patent US20230312550.

biological target: Prolyl endopeptidase FAP (Homo sapiens, UniProt Q12884); test: hFAP Binding Assay
assay readout: koff (s⁻¹)

CCC1(C)CN(c2ccc3nccc(C(=O)NCC(=O)N4CSC[C@H]4C#N)c3c2)C1 :: 9.8e-05
N#C[C@@H]1CSCN1C(=O)CNC(=O)c1ccnc2ccc(N3C[C@H](F)[C@@H](F)C3)cc12 :: 0.00017

(1) C[C@@H]1COC[C@H](C)N1c1ccc2nccc(C(=O)NCC(=O)N3CSC[C@H]3C#N)c2c1
(2) Cc1ncccc1-c1ccc2nccc(C(=O)NCC(=O)N3CSC[C@H]3C#N)c2c1
(3) N#C[C@@H]1CSCN1C(=O)CNC(=O)c1c(F)cnc2ccc(N3CCOCC3)cc12
(4) CC(C)C1CN(c2ccc3nccc(C(=O)NCC(=O)N4CSC[C@H]4C#N)c3c2)C1
Rank descending by koff. Record the ranking as a list of labels in the requested order. 3, 2, 4, 1
(3: 0.0038 s⁻¹, 2: 0.00066 s⁻¹, 4: 0.0002 s⁻¹, 1: 0.0001 s⁻¹)

###

Target: Prolyl endopeptidase FAP (Homo sapiens, UniProt Q12884)
Sequence (Q12884 whole entry): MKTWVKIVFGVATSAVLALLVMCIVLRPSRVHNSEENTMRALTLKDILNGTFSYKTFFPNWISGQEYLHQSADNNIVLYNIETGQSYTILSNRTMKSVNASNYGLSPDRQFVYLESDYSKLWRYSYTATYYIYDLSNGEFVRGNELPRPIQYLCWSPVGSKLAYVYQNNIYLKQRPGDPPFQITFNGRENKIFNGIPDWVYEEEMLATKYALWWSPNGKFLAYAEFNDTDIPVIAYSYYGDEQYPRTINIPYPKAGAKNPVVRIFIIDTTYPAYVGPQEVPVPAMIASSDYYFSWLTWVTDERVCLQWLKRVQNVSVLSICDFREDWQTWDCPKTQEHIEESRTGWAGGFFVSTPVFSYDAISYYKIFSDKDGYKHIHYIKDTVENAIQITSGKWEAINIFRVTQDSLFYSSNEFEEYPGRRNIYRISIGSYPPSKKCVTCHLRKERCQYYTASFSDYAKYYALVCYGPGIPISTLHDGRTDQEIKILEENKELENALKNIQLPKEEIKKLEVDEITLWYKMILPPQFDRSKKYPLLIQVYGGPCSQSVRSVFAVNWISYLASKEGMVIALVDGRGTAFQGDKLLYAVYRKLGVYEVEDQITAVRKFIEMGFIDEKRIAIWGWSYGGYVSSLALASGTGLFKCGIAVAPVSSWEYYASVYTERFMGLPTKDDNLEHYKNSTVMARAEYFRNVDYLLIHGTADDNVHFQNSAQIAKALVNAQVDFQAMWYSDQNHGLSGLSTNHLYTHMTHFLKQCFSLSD
Assay: hFAP Binding Assay
assay readout: koff (s⁻¹)

Field: example entries. Status: answers known.
N#C[C@@H]1CSCN1C(=O)CNC(=O)c1ccnc2ccc(N3CC(C(F)(F)F)C3)cc12 :: 6.5e-05
CC1(O)CCN(c2ccc3nccc(C(=O)NCC(=O)N4CSC[C@H]4C#N)c3c2)CC1 :: 3.6e-05
COCC1(C)CN(c2ccc3nccc(C(=O)NCC(=O)N4CSC[C@H]4C#N)c3c2)C1 :: 6.1e-05
CC[C@H]1COCCN1c1ccc2nccc(C(=O)NCC(=O)N3CSC[C@H]3C#N)c2c1 :: 0.00014
N#C[C@@H]1CSCN1C(=O)CNC(=O)c1ccnc2ccc(N3CC4C(C3)C4(F)F)cc12 (some centres not stated) :: 7.4e-05
N#C[C@@H]1CSCN1C(=O)CNC(=O)c1ccnc2ccc(N3CC(OC(F)(F)F)C3)cc12 :: 0.00014
N#C[C@@H]1CSCN1C(=O)CNC(=O)c1ccnc2ccc(-n3ccnc3-c3ccccc3)cc12 :: 0.0013
N#C[C@@H]1CSCN1C(=O)CNC(=O)c1ccnc2ccc(N3CC(F)(CF)C3)cc12 :: 0.00012

(P) C[C@@H]1CCN(c2ccc3nccc(C(=O)NCC(=O)N4CSC[C@H]4C#N)c3c2)C1=O
(Q) N#C[C@@H]1CSCN1C(=O)CNC(=O)c1ccnc2ccc(N3CC(C(F)F)C3)cc12
(R) CC(C)C1(O)CCN(c2ccc3nccc(C(=O)NCC(=O)N4CSC[C@H]4C#N)c3c2)CC1
(S) N#C[C@@H]1CSCN1C(=O)CNC(=O)c1ccnc2ccc(N3CCC4(CCOCC4)CC3)cc12
Write the entries in order, lowest recorded koff first. Please, when replying, give the labels in the order that was requested. R, S, P, Q
(R: 1.4e-05 s⁻¹, S: 2.8e-05 s⁻¹, P: 7e-05 s⁻¹, Q: 0.00011 s⁻¹)

(A) COC[C@@H]1[C@@H](C)OCCN1c1ccc2nccc(C(=O)NCC(=O)N3CSC[C@H]3C#N)c2c1
(B) N#C[C@@H]1CSCN1C(=O)CNC(=O)c1ccnc2ccc(-c3cncnc3)cc12
I would appreciate it if you could say which entry, A or B , has the lower koff value. // respond with label for picked entry A
(A: 7.6e-05 s⁻¹, B: 0.002 s⁻¹)
